Some binders, each annotated with its measured glycan array binding signal (z-score).
target: GlcNAc(b1-3)Gal(b1-4)GlcNAc(b1-3)Gal(b1-4)GlcNAc(b1-2)[GlcNAc(b1-3)Gal(b1-4)GlcNAc(b1-3)Gal(b1-4)GlcNAc(b1-6)]Man(a1-6)[GlcNAc(b1-3)Gal(b1-4)GlcNAc(b1-3)Gal(b1-4)GlcNAc(b1-2)Man(a1-3)]Man(b1-4)GlcNAc(b1-4)[Fuc(a1-6)]GlcNAc; test: glycan array binding signal (z-score within array); higher = stronger binding; conditions: glycan notation: IUPAC condensed, linker removed
The sample as a whole holds a higher share of the strongest signals than the screen did.

Here is how some binders turned out for glycan array binding signal (z-score).
Jacalin (Artocarpus integrifolia) (protein) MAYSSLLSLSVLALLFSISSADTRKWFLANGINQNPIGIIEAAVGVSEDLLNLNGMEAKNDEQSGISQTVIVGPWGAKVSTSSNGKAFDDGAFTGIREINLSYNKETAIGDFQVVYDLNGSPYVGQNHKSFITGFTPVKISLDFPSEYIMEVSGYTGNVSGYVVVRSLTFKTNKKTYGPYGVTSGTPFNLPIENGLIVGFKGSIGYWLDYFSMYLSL	2.41
AAA (Anguilla anguilla), Q7SIC1 (protein) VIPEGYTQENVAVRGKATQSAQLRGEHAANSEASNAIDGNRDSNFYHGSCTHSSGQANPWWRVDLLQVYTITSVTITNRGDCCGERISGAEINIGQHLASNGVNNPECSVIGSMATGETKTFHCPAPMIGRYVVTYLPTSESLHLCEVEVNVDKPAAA	0.944

Here's the next entry for you.
INPUT: GET /values?readout=glycan array binding signal (z-score)&item= LysMD3 (Homo sapiens), Q7Z3D4 (protein) MAGRHQNRSFPLPGVQSSGQVHAFGNCSDSDILEEDAEVYELRSRGKEKVRRSTSRDRLDDIIVLTKDIQEGDTLNAIALQYCCTVADIKRVNNLISDQDFFALRSIKIPVKKFSSLTETLCPPKGRQTSRHSSVQYSSEQQEILPANDSLAYSDSAGSFLKEVDRDIEQIVKCTDNKRENLNEVVSALTAQQMRFEPDNKNTQRKDPYYGADWGIG
OUTPUT: 1.87

Ref: the supplement of paper PMC8728848
